# measurementNotes: Agonist activity at Protein kinase C in human MT4 cells infected with HIV-1 NL4-3 assessed as inhibition of viral replication measured on day 3 post-infection by Nano-Glo luciferase assay
Here the recorded IC50 is given for each entry.

smilesStr	IC50
C=C(C)[C@]12C[C@@H](COC(=O)c3ccccc3)[C@@]34OC5(O[C@@H]1[C@@H]3[C@@H]1O[C@]1(CO)[C@@H](O)[C@@]1(O)[C@H]4[C@H]([C@H](C)[C@@H]1OC(=O)c1ccccc1)[C@H](C)CCCCCCC5=O)O2	0.14 nM
C=C(C)[C@]12C[C@@H](COC(=O)c3ccccc3)[C@@]34OC5(O[C@@H]1[C@@H]3[C@@H]1O[C@]1(CO)[C@@H](O)[C@@]1(O)[C@H]4[C@H]([C@H](C)[C@@H]1O)[C@H](C)CCCCCC[C@H]5O)O2	> 1 nM
C=C(C)[C@]12C[C@@H](COC(=O)c3ccccc3)[C@@]34OC5(O[C@@H]1[C@@H]3[C@@H]1O[C@]1(CO)[C@@H](O)[C@@]1(O)[C@H]4[C@H]([C@H](C)[C@@H]1OC(=O)c1ccccc1)[C@H](C)CCCCCC[C@H]5OC(=O)c1ccc([N+](=O)[O-])cc1)O2	> 1 nM
C=C(C)[C@]12C[C@@H](CO)[C@@]34OC5(O[C@@H]1[C@@H]3[C@@H]1O[C@]1(CO)[C@@H](O)[C@@]1(O)[C@H]4[C@H]([C@H](C)[C@@H]1O)[C@H](C)CCCCCC[C@H]5O)O2	> 1 nM

Values compiled from ChEMBL document CHEMBL4373700.
